target: human RORγ-LBD (Homo sapiens); construct: made in house; host or cells: E. coli (BL-21); test: ROR gamma coactivator peptide recruitment Alphascreen assay (RORγ-LBD binding to GRIP1 coactivator peptide); format: biochemical; conditions: 5 nM human RORγ-LBD, 30 nM 7-β-hydroxycholesterol, 50 nM biotinylated GRIP1 coactivator peptide, overnight incubation at room temperature; read-out: result (pIC50, RORγ coactivator peptide recruitment Alphascreen assay) (converted)
// NB: equality with 10 nM counts as Not satisfied; only IC50 strictly below is Satisfied

> print(dat)
                                    compound  qualitative.label
 1  O=C(CN(C(=O)c1cnn([C@H]2CC[C@@H](C(=O)O)CC2)c1C(F)(F)F)C1CCC12CCCC2)c1c(Cl)cccc1Cl (stereo in doubt)      Not satisfied
 2  CC1(C)CC[C@@H](CN(CC(=O)c2c(Cl)cncc2Cl)C(=O)c2cnn([C@H]3CC[C@](C)(C(=O)O)CC3)c2C(F)(F)F)O1      Not satisfied
 3  CC1(C)CC(CN(CC(=O)c2c(F)cccc2Cl)C(=O)c2cnn([C@H]3CC[C@@H](C(=O)O)CC3)c2C(F)(F)F)C1      Not satisfied
 4  CC(C)[C@@H]1C[C@H](Cc2c(Cl)cncc2Cl)N(C(=O)c2cnn([C@H]3CC[C@](C)(C(=O)O)CC3)c2C(F)(F)F)C1 [Example 746]      Not satisfied
 5  Cc1cc(Cl)c(C(=O)CN(CCC2CC2)C(=O)c2cnn([C@H]3CC[C@](C)(C(=O)O)CC3)c2C(F)(F)F)c(Cl)c1          Satisfied
 6  Cc1cc(Cl)c(C(=O)CN(C[C@@]2(C)CCCO2)C(=O)c2cnn([C@H]3CC[C@](C)(C(=O)O)CC3)c2C(F)(F)F)c(Cl)c1 [Example 725]          Satisfied
 7  O=C(CN(CC1(F)CCCC1)C(=O)c1cnn([C@H]2C[C@@H]3[C@H](C2)[C@@H]3C(=O)O)c1C(F)(F)F)c1c(Cl)cccc1Cl      Not satisfied
 8  CC1(C)CC[C@H](CN(CCc2c(Cl)cncc2Cl)C(=O)c2cnn([C@H]3CC[C@](C)(C(=O)O)CC3)c2C(F)(F)F)O1      Not satisfied
 9  C[C@]1(C(=O)O)CC[C@H](n2ncc(C(=O)N(CC(=O)c3c(Cl)cncc3Cl)CC3CCCC3)c2C(F)(F)F)CC1          Satisfied
10  COc1cc(Cl)c(C(=O)CN(CC2(F)CCCC2)C(=O)c2cnn([C@H]3CC[C@H](CC(=O)O)CC3)c2C(F)(F)F)c(Cl)c1          Satisfied
11  C[C@H]1C[C@](C)(C(=O)O)CC[C@H]1n1ncc(C(=O)N(CC(=O)c2c(Cl)cncc2Cl)CC(C)(C)C)c1C(F)(F)F [Example 883]      Not satisfied

###

Target: human RORγ-LBD (Homo sapiens, UniProt P51449)
Construct: made in house; host or cells: E. coli (BL-21)
Assay: ROR gamma coactivator peptide recruitment Alphascreen assay (RORγ-LBD binding to GRIP1 coactivator peptide)
Format: biochemical
Conditions: 5 nM human RORγ-LBD, 30 nM 7-β-hydroxycholesterol, 50 nM biotinylated GRIP1 coactivator peptide, overnight incubation at room temperature; read-out: result (pIC50, RORγ coactivator peptide recruitment Alphascreen assay) (converted)
Text: Alphascreen™ is a bead-based amplified homogenous luminescent proximity assay that can be used for measuring the effect of compounds on protein-protein interactions. When biological interactions bring donor and acceptor beads into close proximity, reactive oxygen, generated upon laser excitation of the donor beads, initiates a luminescence/fluorescence cascade in the acceptor beads that leads to a highly amplified signal that can be measured as light in the 520-620 nm range. […]
The following molecules are shown together with reported IC50 values.
VALUE KIND: IC50 (nM)

> print(dat)
                                   molecule                             target.entity  number
1  C[C@]1(C(=O)O)CC[C@H](n2ncc(C(=O)N3C[C@H](C4CCCCC4)C[C@H]3C(=O)c3c(Cl)cncc3Cl)c2C(F)(F)F)CC1 (single isomer, unassigned)  human RORγ-LBD (Homo sapiens, UniProt P51449)    9120
2  Cc1cc(Cl)c(C(=O)CN(C(=O)c2cnn([C@H]3CC[C@](C)(C(=O)O)CC3)c2C(F)(F)F)C2CCC(C)(C)CC2)c(Cl)n1  human RORγ-LBD (Homo sapiens, UniProt P51449)    9.12
3  C[C@@H]1C[C@@H](n2ncc(C(=O)N(CC(=O)c3c(Cl)cncc3Cl)CC3(C)CC3)c2C(F)(F)F)CC[C@@H]1C(=O)O  human RORγ-LBD (Homo sapiens, UniProt P51449)    17.4

###

target: human RORγ-LBD (Homo sapiens, UniProt P51449); construct: made in house; host or cells: E. coli (BL-21); assay: ROR gamma coactivator peptide recruitment Alphascreen assay (RORγ-LBD binding to GRIP1 coactivator peptide); format: biochemical; conditions: 5 nM human RORγ-LBD, 30 nM 7-β-hydroxycholesterol, 50 nM biotinylated GRIP1 coactivator peptide, overnight incubation at room temperature; read-out: result (pIC50, RORγ coactivator peptide recruitment Alphascreen assay) (converted)
The following molecules are shown together with reported IC50 values.
VALUE KIND: IC50 (nM)

> print(dat)
                              smiles.string  number
1  CC(C)CCN(CC(=O)c1c(Cl)cncc1Cl)C(=O)c1cnn([C@H]2CC[C@](C)(C(=O)O)CC2)c1C(F)(F)F    13.2
2  C[C@H]1C[C@H](n2ncc(C(=O)N(CCC(F)(F)F)CC(=O)c3c(Cl)cncc3Cl)c2C(F)(F)F)CC[C@H]1C(=O)O     372
3  CC1(C)CC(CN(CC(=O)c2ccccc2C#N)C(=O)c2cnn([C@H]3CC[C@](C)(C(=O)O)CC3)c2C(F)(F)F)C1    6610

###

Biological target: ligand binding domain of human ROR gamma (Homo sapiens)
Construct: NM_001001523; expressed in transfected cells; host or cells: HEK293T
Sequence (P51449 247-497 isoform P51449-2): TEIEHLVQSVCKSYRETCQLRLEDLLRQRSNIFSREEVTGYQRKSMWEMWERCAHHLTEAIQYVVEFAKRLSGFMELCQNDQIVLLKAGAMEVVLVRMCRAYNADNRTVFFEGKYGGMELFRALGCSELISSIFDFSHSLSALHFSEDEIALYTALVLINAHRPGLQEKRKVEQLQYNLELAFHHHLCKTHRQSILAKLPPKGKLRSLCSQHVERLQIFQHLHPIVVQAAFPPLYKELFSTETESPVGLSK
Assay: ROR gamma reporter gene assay (GAL4-RORγ LBD luciferase, Dual-Glo)
Type: cell-based
Conditions: HEK293T cells transfected with pM-ROR gamma, 8 concentrations 3.5 nM to 10.5 μM, 24 h incubation; read-out: result (pIC50, inhibition of RORγ transcriptional activity) (converted)

COMPOUND	RESULT OPERATOR	IC50 / pM
COc1cccc(Cl)c1[C@@H](O)CN(CC(C)(C)C)C(=O)c1cnn([C@H]2CC[C@](C)(C(=O)O)CC2)c1C(F)(F)F [Example 356]	=	102000
N[C@]1(C(=O)O)CC[C@@H](n2ncc(C(=O)N(CC(=O)c3c(Cl)cncc3Cl)Cc3ccc(F)cc3)c2C(F)(F)F)CC1 [Example 116]	>	1e+07
CC(C)(C)CN(CCc1c[nH]c2ccccc12)C(=O)c1cnn([C@H]2CC[C@](C)(C(=O)O)CC2)c1C(F)(F)F [Example 328]	=	2.95e+06
Cc1cc(Cl)c(C(=O)CN(CC2(F)CCCC2)C(=O)c2cnn(C34CCC(C(=O)O)(CC3)CC4)c2C(F)(F)F)c(Cl)c1 [Example 300]	=	24000
O=C(CN(Cc1cc(F)cc(F)c1)C(=O)c1cnn([C@H]2CC[C@H](C(=O)O)CC2)c1C(F)(F)F)c1c(F)cncc1Cl [Example 50]	=	70800
Cc1cc(Cl)c(C(=O)CN(C(=O)c2cnn([C@H]3CC[C@](C)(C(=O)O)CC3)c2Cl)[C@H]2C[C@@H]3[C@H](C2)C3(C)C)c(Cl)c1 [Example 366]	=	15100
CC1(C)[C@@H]2C[C@H](N(CC(O)c3ncncc3Cl)C(=O)c3cnn([C@H]4CC[C@](C)(C(=O)O)CC4)c3C(F)(F)F)C[C@@H]21 (stereo partly shown) [Example 408]	=	331000
CC1(C)[C@@H]2C[C@H](N(CCc3c[nH]c4cccc(Cl)c34)C(=O)c3cnn([C@H]4CC[C@](C)(C(=O)O)CC4)c3C(F)(F)F)C[C@@H]21 [Example 343]	=	31600
CC1(C)[C@@H]2C[C@H](N(C[C@H](O)c3c(F)cncc3Cl)C(=O)c3cnn([C@H]4CC[C@](C)(C(=O)O)CC4)c3C(F)(F)F)C[C@@H]21 [Example 383]	=	39800
O=C(CN(Cc1cc(F)cc(F)c1)C(=O)c1cnn([C@H]2CC[C@H](C(=O)O)CC2)c1C(F)(F)F)c1ccc(C(F)(F)F)cc1Cl [Example 136]	=	83200
O=C(CN(Cc1cc(F)cc(F)c1)C(=O)c1cnn([C@H]2CC[C@H](C(=O)O)CC2)c1C(F)(F)F)c1c(Cl)cccc1Cl [Example 53]	=	16200
CC1(C)CCC(N(CC(=O)c2c(Cl)cc(Cl)cc2Cl)C(=O)c2cnn([C@H]3CC[C@H](C(=O)O)CC3)c2C(F)(F)F)CC1 [Example 189]	=	30200
COc1ccccc1[C@H](O)CN(C(=O)c1cnn([C@H]2CC[C@](C)(C(=O)O)CC2)c1C(F)(F)F)[C@H]1C[C@@H]2[C@H](C1)C2(C)C [Example 371]	=	5.37e+06
CC1(C)CCC(N(CC(O)c2c(Cl)cc(F)cc2Cl)C(=O)c2cnn([C@H]3CC[C@](C)(C(=O)O)CC3)c2C(F)(F)F)CC1 (single isomer, unassigned) [Example 362]	=	57500
CC1(C)[C@@H]2C[C@H](N(C[C@@H](O)c3ccccc3Cl)C(=O)c3cnn([C@H]4CC[C@](C)(C(=O)O)CC4)c3C(F)(F)F)C[C@@H]21 [Example 369]	=	1.23e+06
CC1(C)CCC(N(CC(=O)c2c(Cl)cncc2Cl)C(=O)c2cnn([C@H]3CC[C@](C)(C(=O)O)CC3)c2C(F)(F)F)CC1 [Example 229]	=	12900
O=C(CN(Cc1cc(F)cc(F)c1)C(=O)c1cnn([C@H]2CC[C@H](C(=O)O)CC2)c1C(F)(F)F)C1CCCCC1 [Example 65]	>	1e+07
COc1cccc(OC)c1C(=O)CN(Cc1cc(F)cc(F)c1)C(=O)c1cnn([C@H]2CC[C@H](C(=O)O)CC2)c1C(F)(F)F [Example 111]	=	355000
CC1(C)[C@@H]2C[C@H](N(C[C@@](C)(O)c3ccccc3Cl)C(=O)c3cnn([C@H]4CC[C@](C)(C(=O)O)CC4)c3C(F)(F)F)C[C@@H]21 [Example 393]	=	4.57e+06
CCC(CC)N(CC(=O)c1c(Cl)cncc1Cl)C(=O)c1cnn([C@H]2CC[C@](C)(C(=O)O)CC2)c1C(F)(F)F [Example 287]	=	1.2e+06
CC1(C)[C@@H]2C[C@H](N(C[C@H](O)c3ccccc3C(F)(F)F)C(=O)c3cnn([C@H]4CC[C@](C)(C(=O)O)CC4)c3C(F)(F)F)C[C@@H]21 [Example 372]	=	331000
CC(C)(C)SCCN(CC(=O)c1c(Cl)cc(F)cc1Cl)C(=O)c1cnn([C@H]2CC[C@](C)(C(=O)O)CC2)c1C(F)(F)F [Example 348]	=	155000
